- target.system: T1, RBBP5 WD40 propeller (residues 2–333) (human, UniProt Q15291 2-333)
- T1 chain: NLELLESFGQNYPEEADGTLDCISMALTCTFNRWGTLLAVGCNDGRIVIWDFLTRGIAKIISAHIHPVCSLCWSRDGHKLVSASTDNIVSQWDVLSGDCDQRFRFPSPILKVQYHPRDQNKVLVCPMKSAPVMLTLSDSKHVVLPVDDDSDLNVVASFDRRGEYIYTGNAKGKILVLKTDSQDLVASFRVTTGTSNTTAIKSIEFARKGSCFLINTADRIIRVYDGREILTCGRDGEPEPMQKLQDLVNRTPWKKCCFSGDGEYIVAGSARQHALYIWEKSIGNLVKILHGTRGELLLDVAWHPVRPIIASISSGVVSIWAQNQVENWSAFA
- procedure.details: ITC
Readings of pKd for the listed binders
pKd is a log-scale quantity: -log10 of the concentration expressed in molar.

RBBP5 390-474 (protein) DEELEDSKALLYLPIAPEVEDPEENPYGPPPDAVQTSLMDEGASSEKKRQSSADGSQPPKKKPKTTNIELQGVPNDEVHPLLGVK :: 4.93

Now turn to the next binder.
Looking up RBBP5 C-terminal distal region (residues 381–538) (domain or fragment, human, UniProt Q15291 381-538, looked up, also called RBBP5CTD; source: Rosetta cells, purified (Ni-NTA, on-beads Ulp1 digestion, SEC)) DPIAAFCSSDEELEDSKALLYLPIAPEVEDPEENPYGPPPDAVQTSLMDEGASSEKKRQSSADGSQPPKKKPKTTNIELQGVPNDEVHPLLGVKGDGKSKKKQAGRPKGSKGKEKDSPFKPKLYKGDRGLPLEGSAKGKVQAELSQPLTAGGAISELL , I see its pKd listed as 5.01

Each recorded value in this set is attributed to paper PMC6821195.
